Tested on: E. coli cells expressing an HPPD polypeptide
Experiment: Brown color bioassay in liquid culture, residual brown color formation (BCF), OD440 after 96 hours
Assay type: cell-based
Conditions: brown color formation with Cmpd. 1 (1000 μM) relative to without, after 96 hours
Attribute: Residual BCF OD440nm [%]
METRIC_NAME: Residual BCF OD440nm [%] (%)

MOLECULE	METRIC_NAME	UOM	VALUE
44 (protein, mutant HPPD polypeptide) MADLYENPMGLMGFEFIEFASPTPGTLEPIFEIMGFTKVATHRSKNVHLYRQGEINLILNNEPNSIASYFAAEHGPSVCGMAFRVKDSQKAYNRALELGAQPIHIDTGPMELNLPAIKGIGGAPLYLIDRFGEGSSIYDIDFVYLEGVERNPVGAGLKVIDHLTHNVYRGRMVYWANFYEKLFNFREARYFDIKGEYTGLTSKAMSAPDGMILIPLNEESSKGAGQIEEFLMQFNGEGIQHVAFLTDDLVKTWDALKKIGMRFMTAPGDEYYEMLEGRLPDHGEPVDQLQARGILLDGSSVEGDKRLLLQIFSETLMGPVFFEFIQRKGDDGFGPDSFKVLFESVERDQVRRGVLTAD	Residual BCF OD440nm [%]	%	40
72 (protein, mutant HPPD polypeptide) MADLYENPMGLMGFEFIEFASPTPGTLEPIFEIMGFTKVATHRSKNVHLYRQGEINLILNNEPNSIASYFAAEHGPSVCGMAFRVKDSQKAYNRALELGAQPIHIDTGPMELNLPAIKGIGGAPLYLIDRFGEGSSIYDIDFVYLEGVERNPVGAGLKVIDHLTHNVYRGRMVYWANFYEKLFNFREARYFDIKGEYTGLTSKAMSAPDGMIRIPLNEESSKGAGQIEEFLMQFNGEGIQHVAFLTDDLVKTWDALKKIGMRFMTAPRDEYYEMLEGRLPDHGEPVDQLQARGILLDGSSVEGDKRLLLQIFSETLMGPVFFEFIQRKGDDGFGPDSFKVLFESVERDQVRRGVLTAD	Residual BCF OD440nm [%]	%	72
19 (protein, mutant HPPD polypeptide) MADLYENPMGLMGFEFIEFASPTPGTLEPIFEIMGFTKVATHRSKNVHLYRQGEINLILNNEPNSIASYFAAEHGPSVCGMAFRVKDSQKAYNRALELGAQPIHIDTGPMELNLPAIKGIGGAPLYLIDRFGEGSSIYDIDFVYLEGVERNPVGAGLKVIDHLTHNVYRGRMVYWANFYEKLFNFREARYFDIKGEYTGLTSKAMSAPDGMIRIPLNEESSKGAGQIEEFLMQFNGEGIQHVAFLTDDLVKTWDALKKIGMRFRTAPGDEYYEMLEGRLPDHGEPVDQLQARGILLDGSSVEGDKRLLLQIFSETLMGPVFFEFIQRKGHDGFGPDSFKVLFESVERDQVRRGVLTAD	Residual BCF OD440nm [%]	%	60
